- assay overview: chemical genetic growth profiling, strain panel (AID 1159580);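 note: tested at 20 µM; growth read once vehicle control cultures reached saturation at 30 °C; 1 = growth at the plate median or of vehicle wells; lower values mean less growth of the strain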
- assay setup: S. cerevisiae deletion strains, growth OD, locus YLR268W, strain sec22, hits give low values
Out of some 5,500 compounds screened, about 2,000 (36%) were called active. Not shown: some 18% with an inconclusive outcome. Some of the results follow.
parameter: normalized growth

{"compound": "CCNc1nc(Cl)nc(NCC)n1", "normalized growth": "1 (inactive)"}

Look up and report measured normalized growth for this entry: CC(=O)O[C@H]1CC[C@]2(C)C3CC[C@@]4(C)C(CC5O[C@@]6(CCC(C)CO6)[C@@H](C)C54)C3CC[C@@H]2C1 (some centres undefined) 0.998 (inactive)

Tell me its normalized growth given COc1cc(O)cc(OC)c1OC as the entry. 1.03 (inactive)

----------
- assay overview: chemical genetic growth profiling, strain panel (AID 1159580);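 note: tested at 20 µM; growth read once vehicle control cultures reached saturation at 30 °C; 1 = growth at the plate median or of vehicle wells; lower values mean less growth of the strain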
- assay setup: S. cerevisiae deletion strains, growth OD, locus YPL106C, strain sse1, hits give low values
Out of some 5,500 compounds screened, about 2,000 (36%) were called active. Another 18% or so got no clear call; they are omitted. This is one part of the list.
So basically, if normalized growth comes in under 1 it's rule met, and if it's 1 or more it's rule not met.

{"molecule": "Cc1cc(C(C)(C)C)c(O)c(C)c1CC1=NCCN1", "group": "rule not met"}
{"molecule": "CN(C)CCc1c[nH]c2ccc(C[C@H]3COC(=O)N3)cc12", "group": "rule not met"}
{"molecule": "O=C(CCBr)N1CCN(C(=O)CCBr)CC1", "group": "rule not met"}
{"molecule": "CO[C@@]1(NC(=O)Cc2cccs2)C(=O)N2C(C(=O)O)=C(COC(N)=O)CS[C@@H]21", "group": "rule met"}

Please state whether normalized growth is below 1 for NC1C[C@H]1c1ccccc1 (some centres not stated) rule met

Would you kindly verify if normalized growth of COc1cnc(NS(=O)(=O)c2ccc(N)cc2)nc1 is strictly less than 1? rule met

----------
- assay overview: chemical genetic growth profiling, strain panel (AID 1159580);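 note: tested at 20 µM; growth read once vehicle control cultures reached saturation at 30 °C; 1 = growth at the plate median or of vehicle wells; lower values mean less growth of the strain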
- assay setup: S. cerevisiae deletion strains, growth OD, locus YJL095W, strain BCK1 (second series)
Out of some 5,500 compounds screened, about 2,000 (36%) were called active. Not shown: some 18% with an inconclusive outcome. Cut-off read from the data, not from the text of the source: active = normalized growth mostly below about 0.91 (no sharp cut-off); inconclusive = no clear call, values can overlap the other calls; inactive = mostly above about 0.92. This is one part of the list.
I would appreciate it if you answered using one of these outcomes: Yes for active, No for inactive

Worked cases, answers included:
{"compound": "COc1cc(-c2oc3cc(O)ccc3c(=O)c2O)ccc1O", "group": "No"}
{"compound": "CCOc1cccc(C(=O)c2ccc(O)c(O)c2O)c1", "group": "Yes"}
{"compound": "NCCc1cc(O)c(O)cc1O", "group": "No"}
{"compound": "CCCc1nc2c(C)cc(-c3nc4ccccc4n3C)cc2n1Cc1ccc(-c2ccccc2C(=O)O)cc1", "group": "No"}
{"compound": "C#C[C@]1(O)CCC2C3CCC4=Cc5oncc5C[C@]4(C)C3CC[C@@]21C (stereo not given in full)", "group": "No"}
{"compound": "CCN(CC)CCNC(=O)c1cc(Cl)c(N)cc1OC", "group": "No"}
{"compound": "COc1cc2c(cc1OC)[C@@]13CCN4CC5=CCOC6CC(=O)N2C1[C@H]6[C@H]5C[C@H]43 (stereo not given in full)", "group": "No"}
{"compound": "O=C(O)c1cc(=O)c2cccc(O)c2[nH]1", "group": "No"}

We next turn to a different compound, shown below.
How was C=C(C)[C@H]1Cc2c(ccc3c2O[C@@H]2COc4cc(OC)c(OC)cc4[C@@H]2C3=O)O1 classified in this test? No
